Listed next: entries and their corresponding selectivity ratio.
experiment: Selectivity index, ratio of CC50 for human MT4 cells to EC50 for Human immunodeficiency virus 1 NL4-3 infected in human MT4 cells; format: toxicity, cell-based; settings: read-out: Ratio CC50/EC50
reported metric: selectivity ratio

| smiles input | observed value |
| --- | --- |
| CC1=C[C@@H]2C(=O)[C@]3(C=C(C)[C@H](OC(=O)c4ccccc4)[C@@]3(O)[C@@H]1O)[C@H](C)C[C@@H]1[C@H]2C1(C)C | > 302 |
| CC1=C[C@@H]2C(=O)[C@]3(C=C(C)[C@H](O)[C@@]3(O)[C@@H]1O)[C@H](C)C[C@@H]1[C@H]2C1(C)C | > 10 |
| C/C=C(/C)C(=O)O[C@H]1C(C)=C[C@]23C(=O)[C@@H](C=C(C)[C@@H](O)[C@]12O)[C@H]1[C@@H](C[C@H]3C)C1(C)C | > 22.8 |
| CCCCCCCCCCCC(=O)O[C@@]12C[C@@H](C)[C@]34C=C(C)[C@H](O)[C@@]3(O)[C@H](O)C(CO)=C[C@H](C4=O)[C@@H]1C2(C)C | > 273 |
| CC(=O)OCC1=C[C@@H]2C(=O)[C@]3(C=C(C)[C@H](O)[C@@]3(O)[C@@H]1O)[C@H](C)C[C@@H]1[C@H]2C1(C)C | > 10 |
| CC1=C[C@@H]2C(=O)[C@]3(C=C(C)[C@H](O)[C@@]3(O)[C@@H]1OC(=O)c1ccccc1)[C@H](C)C[C@@H]1[C@H]2C1(C)C | > 216 |

* * *

tested on: MT4; test: Cytotoxicity against human MT4 cells after 3 days by CytoTox-Glo assay; type: cell-based; settings: mt4, 72 h
Listed next: entries and their corresponding CC50.

| smiles input | CC50 |
| --- | --- |
| CC1=C[C@]23C(=O)[C@@H](C=C(CO)[C@@H](O)[C@]2(O)[C@H]1OC(=O)c1ccc2ccccc2c1)[C@H]1[C@@H](C[C@H]3C)C1(C)C | > 8 µM |
| CC1=C[C@@H]2C(=O)[C@]3(C=C(C)[C@H](O)[C@@]3(O)[C@@H]1OC(=O)/C=C/c1ccccc1)[C@H](C)C[C@@H]1[C@H]2C1(C)C | > 8.7 µM |
| CC1=C[C@@H]2C(=O)[C@]3(C=C(C)[C@H](O)[C@@]3(O)[C@@H]1O)[C@H](C)C[C@@H]1[C@H]2C1(C)C | > 12 µM |
| CC(=O)OCC1=C[C@@H]2C(=O)[C@]3(C=C(C)[C@H](O)[C@@]3(O)[C@@H]1O)[C@H](C)C[C@@H]1[C@H]2C1(C)C | > 10.3 µM |
| C/C=C/C(=O)O[C@H]1C(C)=C[C@]23C(=O)[C@@H](C=C(C)[C@@H](O)[C@]12O)[C@H]1[C@@H](C[C@H]3C)C1(C)C | > 10 µM |
| CCCCCCCC(=O)O[C@H]1C(C)=C[C@]23C(=O)[C@@H](C=C(C)[C@@H](O)[C@]12O)[C@H]1[C@@H](C[C@H]3C)C1(C)C | > 8.7 µM |

* * *

experiment: Selectivity index, ratio of CC50 for human MT4 cells to EC50 for Human immunodeficiency virus 1 NL4-3 infected in human MT4 cells; type: toxicity, cell-based; settings: read-out: Ratio CC50/EC50

| molecule | selectivity ratio |
| --- | --- |
| CC1=C[C@]23C(=O)[C@@H](C=C(CO)[C@@H](O)[C@]2(O)[C@H]1OC(=O)c1ccc2ccccc2c1)[C@H]1[C@@H](C[C@H]3C)C1(C)C | > 6150 |
| C/C=C/C(=O)O[C@@H]1C(C)=C[C@@H]2C(=O)[C@]3(C=C(C)[C@H](O)[C@@]13O)[C@H](C)C[C@@H]1[C@H]2C1(C)C | > 16 |
| CC1=C[C@@H]2C(=O)[C@]3(C=C(C)[C@H](O)[C@@]3(O)[C@@H]1OC(=O)/C=C/c1ccccc1)[C@H](C)C[C@@H]1[C@H]2C1(C)C | > 22 |
| CC1=C[C@@H]2C(=O)[C@]3(C=C(C)[C@H](OC(=O)/C=C/c4ccccc4)[C@@]3(O)[C@@H]1O)[C@H](C)C[C@@H]1[C@H]2C1(C)C | > 45 |
| C/C=C(/C)C(=O)O[C@H]1C(C)=C[C@]23C(=O)[C@@H](C=C(CO)[C@@H](O)[C@]12O)[C@H]1[C@@H](C[C@H]3C)C1(C)C [INGENOL MEBUTATE] | > 2070 |
| CC1=C[C@@H]2C(=O)[C@]3(C=C(C)[C@H](OC(=O)c4ccc5ccccc5c4)[C@@]3(O)[C@@H]1O)[C@H](C)C[C@@H]1[C@H]2C1(C)C | > 543 |
